These entries and their values trace back to ChEMBL document CHEMBL1909294.

Read-out record for Hepatotoxicity: HepSE_liver function tests abnormal

In the examples that follow, each entry is paired with its recorded HepSE_liver function tests abnormal.
• CC[N+](C)(C)Cc1ccccc1Br = 0
• c1ccc(CC2=NCCN2)cc1 = 0
• Cc1nc(Nc2ncc(C(=O)Nc3c(C)cccc3Cl)s2)cc(N2CCN(CCO)CC2)n1.O = 1
• COc1cccc(C2(O)CCCCC2CN(C)C)c1 (stereo unspecified) = 1
• FC(F)OC(Cl)C(F)(F)F (stereo unspecified) = 0

May I ask what HepSE_liver function tests abnormal has been recorded for C[C@]12CCC(=O)C=C1CC[C@@H]1[C@@H]2CC[C@@]2(C)[C@H]1CC[C@]2(C)O ? 0

May I ask what HepSE_liver function tests abnormal has been recorded for CC[C@H](C)C[C@H](C)CCCCCCCCC(=O)N[C@H]1C[C@@H](O)[C@@H](NCCN)NC(=O)[C@@H]2[C@@H](O)CCN2C(=O)[C@H]([C@H](O)CCN)NC(=O)[C@H]([C@H](O)[C@@H](O)c2ccc(O)cc2)NC(=O)[C@@H]2C[C@@H](O)CN2C(=O)[C@H]([C@@H](C)O)NC1=O ? 0

May I ask what HepSE_liver function tests abnormal has been recorded for Nc1cccc2c1CN(C1CCC(=O)NC1=O)C2=O (stereo unspecified) [LENALIDOMIDE] ? 1

May I ask what HepSE_liver function tests abnormal has been recorded for CC1(C)O[C@@H]2C[C@H]3[C@@H]4C[C@H](F)C5=CC(=O)CC[C@]5(C)[C@H]4[C@@H](O)C[C@]3(C)[C@]2(C(=O)CO)O1 [FLURANDRENOLIDE] ? 0

May I ask what HepSE_liver function tests abnormal has been recorded for O=C1CCc2ccc(OCCCCN3CCN(c4cccc(Cl)c4Cl)CC3)cc2N1 ? 0

May I ask what HepSE_liver function tests abnormal has been recorded for CCCN1CCCC[C@H]1C(=O)Nc1c(C)cccc1C ? 0

====

Read-out record for Hepatotoxicity: HepSE_liver function tests abnormal
Form: value (number only, do not type unit).

In the examples that follow, each entry is paired with its recorded HepSE_liver function tests abnormal.
- COc1cc2nc(N3CCN(C(=O)C4COc5ccccc5O4)CC3)nc(N)c2cc1OC (configuration not stated): 1
- CC1(C)S[C@@H]2[C@H](NC(=O)Cc3ccccc3)C(=O)N2[C@H]1C(=O)O: 0
- C[C@]1(O)CC[C@H]2[C@@H]3CCC4=CC(=O)CC[C@]4(C)[C@@]3(F)[C@@H](O)C[C@@]21C: 0
- FC(F)OC(F)(F)C(F)Cl (configuration not stated): 0
- NC(=O)CC[C@@H]1NC(=O)[C@H](Cc2ccccc2)NC(=O)[C@H](Cc2ccc(O)cc2)NC(=O)CCSSC[C@@H](C(=O)N2CCC[C@H]2C(=O)N[C@H](CCCN=C(N)N)C(=O)NCC(N)=O)NC(=O)[C@H](CC(N)=O)NC1=O: 0

Observed HepSE_liver function tests abnormal on Hepatotoxicity for CC(COc1ccccc1)NC(C)C(O)c1ccc(O)cc1 (configuration not stated) , please. 0

Observed HepSE_liver function tests abnormal on Hepatotoxicity for CO/N=C(\C(=O)N[C@@H]1C(=O)N2C(C(=O)OCOC(=O)C(C)(C)C)=C(/C=C\c3scnc3C)CS[C@H]12)c1csc(N)n1 , please. 1

====

# Test system: Hepatotoxicity
Entries and their HepSE_cholecystitis values follow.
Form: value (number only, do not type unit).

* Cc1cccc(C)c1NC(=O)C1CCCCN1C (stereo unspecified) [MEPIVACAINE] | 0

Observed HepSE_cholecystitis on Hepatotoxicity for CCOC(=O)[C@H](CCc1ccccc1)N[C@@H](C)C(=O)N1CCC[C@H]1C(=O)O , please. 0

Observed HepSE_cholecystitis on Hepatotoxicity for C[C@]12CC[C@@H]3c4ccc(O)cc4C[C@@H](CCCCCCCCC[S+]([O-])CCCC(F)(F)C(F)(F)F)[C@H]3[C@@H]1CC[C@@H]2O (stereo partly specified) , please. 0

Observed HepSE_cholecystitis on Hepatotoxicity for CN(Cc1cnc2nc(N)nc(N)c2n1)c1ccc(C(=O)N[C@@H](CCC(=O)O)C(=O)O)cc1 [METHOTREXATE] , please. 0

Observed HepSE_cholecystitis on Hepatotoxicity for CCC[C@@H]1C[C@@H](C(=O)N[C@@H]([C@H]2O[C@H](SC)[C@H](O)[C@@H](O)[C@H]2O)[C@@H](C)O)N(C)C1 , please. 0

Observed HepSE_cholecystitis on Hepatotoxicity for NC[C@@H]1O[C@H](O[C@H]2[C@@H](O)[C@H](O[C@@H]3[C@@H](O)[C@H](N)C[C@H](N)[C@H]3O[C@H]3O[C@H](CO)[C@@H](O)[C@H](O)[C@H]3N)O[C@@H]2CO)[C@H](N)[C@@H](O)[C@@H]1O , please. 0
